- ASSAY REMARKS: Drug concentrations obtained using EGCG at 50 mg per ml (microscopic check for particulates)
- Assay type: physicochemical
- CONDITION DETAILS: 1 ml of water
MEASURED ENDPOINT: Drug Concentration (microgram/ml)
The figure you give is taken to be in microgram/ml; do not add the unit.

- COMPOUND: "COc1ccc([C@@H]2CC(=O)c3c(O)cc(O[C@@H]4O[C@H](CO[C@@H]5O[C@@H](C)[C@H](O)[C@@H](O)[C@H]5O)[C@@H](O)[C@H](O)[C@H]4O)cc3O2)cc1O"
  MEASURED ENDPOINT: "Drug Concentration"
  UNIT ANNOTATION: "microgram/ml"
  VALUE OBSERVED: 125

Consider the compound shown here: O=c1c(O)c(-c2ccc(O)c(O)c2)oc2cc(O)cc(O)c12 What is its recorded Drug Concentration?
250

Consider the compound shown here: CC(C)(C)[C@]1(O)CC2OC(=O)CC23C(=O)OC2OC(=O)[C@H](O)C231 (some centres unmarked) [bilobalide] What is its recorded Drug Concentration?
250

Consider the compound shown here: C[C@@H]1[C@H](O)[C@@H](C)/C=C/C=C/C=C/C=C/C=C/C=C/C=C/[C@H](O[C@@H]2O[C@H](C)[C@@H](O)[C@H](N)[C@@H]2O)C[C@@H]2O[C@](O)(C[C@@H](O)C[C@@H](O)[C@H](O)CC[C@@H](O)C[C@@H](O)CC(=O)O[C@H]1C)C[C@H](O)[C@H]2C(=O)O What is its recorded Drug Concentration?
125

Consider the compound shown here: CC1C(=O)OC2C(O)C34C5CC(C(C)(C)C)C36C(OC(=O)C6O)OC4(C(=O)O5)C12O (centres unmarked) [ginkgolide B] What is its recorded Drug Concentration?
250

Consider the compound shown here: COc1ccc([C@@H]2CC(=O)c3c(O)cc(O)cc3O2)cc1O What is its recorded Drug Concentration?
250

Consider the compound shown here: CC1=CC(=O)c2c(O)cccc2C1=O What is its recorded Drug Concentration?
250

Consider the compound shown here: COc1ccc2c(c1)c(CC(=O)O)c(C)n2C(=O)c1ccc(Cl)cc1 What is its recorded Drug Concentration?
250

Consider the compound shown here: CC[C@@]1(O)C(=O)OCc2c1cc1n(c2=O)Cc2cc3ccccc3nc2-1 What is its recorded Drug Concentration?
50

Consider the compound shown here: C[C@@H]1[C@H](O)[C@@H](C)/C=C/C=C/CC/C=C/C=C/C=C/C=C/C(O[C@H]2O[C@H](C)[C@@H](O)[C@H](N)[C@@H]2O)CC2O[C@](O)(CC(O)C(O)CCC(O)CC(O)CC(O)CC(=O)O[C@H]1C)CC(O)C2C(=O)O (some centres unmarked) What is its recorded Drug Concentration?
125

Consider the compound shown here: COc1cc(/C=C/C(=O)CC(=O)/C=C/c2ccc(O)c(OC)c2)ccc1O What is its recorded Drug Concentration?
250

----------
- ASSAY REMARKS: Drug concentrations obtained using EGCG at 50 mg per ml (microscopic check for particulates)
- Format: physicochemical
MEASURED ENDPOINT: Visual appearance

Reference set (4 entries):
- COMPOUND: "CC(C)(C)[C@]1(O)CC2OC(=O)CC23C(=O)OC2OC(=O)[C@H](O)C231 (some centres unmarked) [bilobalide]"
  VALUE OBSERVED: "clear solution"
- COMPOUND: "COc1ccc2c(c1)c(CC(=O)O)c(C)n2C(=O)c1ccc(Cl)cc1"
  VALUE OBSERVED: "clear solution"
- COMPOUND: "O=c1c(O)c(-c2ccc(O)c(O)c2)oc2cc(O)cc(O)c12"
  VALUE OBSERVED: "clear"
- COMPOUND: "CC[C@@]1(O)C(=O)OCc2c1cc1n(c2=O)Cc2cc3ccccc3nc2-1"
  VALUE OBSERVED: "clear"

Consider the compound shown here: C[C@@H]1[C@H](O)[C@@H](C)/C=C/C=C/C=C/C=C/C=C/C=C/C=C/[C@H](O[C@@H]2O[C@H](C)[C@@H](O)[C@H](N)[C@@H]2O)C[C@@H]2O[C@](O)(C[C@@H](O)C[C@@H](O)[C@H](O)CC[C@@H](O)C[C@@H](O)CC(=O)O[C@H]1C)C[C@H](O)[C@H]2C(=O)O What is its recorded Visual appearance?
clear

----------
- ASSAY REMARKS: physchem
- CONDITION DETAILS: pH 7, aqueous with cosolvent or surfactant or cyclodextrin, thermodynamic from solid, drug concentration solubilised at maximum tannic acid concentration
MEASURED ENDPOINT: solubility

Consider the compound shown here: CC(C)(C)NC(=O)[C@H]1CC[C@H]2[C@@H]3CC[C@H]4NC(=O)C=C[C@]4(C)[C@H]3CC[C@]12C [finasteride] What is its recorded solubility?
~10000 µg/mL

----------
- ASSAY REMARKS: physchem
- Type: physicochemical
- CONDITION DETAILS: pH 7, aqueous with cosolvent or surfactant or cyclodextrin, thermodynamic from solid
MEASURED ENDPOINT: solubility

Consider the compound shown here: CC(C)(C)NC(=O)[C@H]1CC[C@H]2[C@@H]3CC[C@H]4NC(=O)C=C[C@]4(C)[C@H]3CC[C@]12C [finasteride] What is its recorded solubility?
8000 to 10000 µg/mL

----------
- ASSAY REMARKS: physchem
- CONDITION DETAILS: aqueous with cosolvent or surfactant or cyclodextrin, thermodynamic from solid, drug concentration solubilised at maximum EGCG concentration
Known solubility of a selection of compounds

Reference set (2 entries):
- COMPOUND: "CC(C)(C)NC(=O)[C@H]1CC[C@H]2[C@@H]3CC[C@H]4NC(=O)C=C[C@]4(C)[C@H]3CC[C@]12C [finasteride]"
  VALUE OBSERVED: "~11000 µg/mL"
- COMPOUND: "CC(=O)O[C@H]1C(=O)[C@@]2(C)[C@H]([C@H](OC(=O)c3ccccc3)[C@]3(O)C[C@H](OC(=O)[C@H](O)[C@@H](NC(=O)c4ccccc4)c4ccccc4)C(C)=C1C3(C)C)[C@]1(OC(C)=O)CO[C@@H]1C[C@@H]2O [paclitaxel]"
  VALUE OBSERVED: "~1000 µg/mL"

Consider the compound shown here: C[C@@H]1[C@H](O)[C@@H](C)/C=C/C=C/C=C/C=C/C=C/C=C/C=C/[C@H](O[C@@H]2O[C@H](C)[C@@H](O)[C@H](N)[C@@H]2O)C[C@@H]2O[C@](O)(C[C@@H](O)C[C@@H](O)[C@H](O)CC[C@@H](O)C[C@@H](O)CC(=O)O[C@H]1C)C[C@H](O)[C@H]2C(=O)O [amphotericin, amphotericin B] What is its recorded solubility?
~1800 µg/mL

Consider the compound shown here: COc1cc(/C=C/C(=O)CC(=O)/C=C/c2ccc(O)c(OC)c2)ccc1O [curcumin] What is its recorded solubility?
~4700 µg/mL

----------
- CONDITION DETAILS: 24 h
MEASURED ENDPOINT: stability of EGCG solutions of the drug

- COMPOUND: "CC(C)(C)NC(=O)[C@H]1CC[C@H]2[C@@H]3CC[C@H]4NC(=O)C=C[C@]4(C)[C@H]3CC[C@]12C [finasteride]"
  MEASURED ENDPOINT: "stability of EGCG solutions of the drug"
  VALUE OBSERVED: "stable for 24 hours"
- COMPOUND: "COc1cc(/C=C/C(=O)CC(=O)/C=C/c2ccc(O)c(OC)c2)ccc1O [curcumin]"
  MEASURED ENDPOINT: "stability of EGCG solutions of the drug"
  VALUE OBSERVED: "stable for 24 hours"
- COMPOUND: "C[C@@H]1[C@H](O)[C@@H](C)/C=C/C=C/C=C/C=C/C=C/C=C/C=C/[C@H](O[C@@H]2O[C@H](C)[C@@H](O)[C@H](N)[C@@H]2O)C[C@@H]2O[C@](O)(C[C@@H](O)C[C@@H](O)[C@H](O)CC[C@@H](O)C[C@@H](O)CC(=O)O[C@H]1C)C[C@H](O)[C@H]2C(=O)O [amphotericin, amphotericin B]"
  MEASURED ENDPOINT: "stability of EGCG solutions of the drug"
  VALUE OBSERVED: "stable for 24 hours"

----------
- ASSAY REMARKS: physchem
- CONDITION DETAILS: water, free solubility in water
MEASURED ENDPOINT: solubility

- COMPOUND: "COc1cc(/C=C/C(=O)CC(=O)/C=C/c2ccc(O)c(OC)c2)ccc1O"
  solubility: "< 1 µg/mL"

Consider the compound shown here: C[C@@H]1[C@H](O)[C@@H](C)/C=C/C=C/C=C/C=C/C=C/C=C/C=C/[C@H](O[C@@H]2O[C@H](C)[C@@H](O)[C@H](N)[C@@H]2O)C[C@@H]2O[C@](O)(C[C@@H](O)C[C@@H](O)[C@H](O)CC[C@@H](O)C[C@@H](O)CC(=O)O[C@H]1C)C[C@H](O)[C@H]2C(=O)O What is its recorded solubility?
1 to 10 µg/mL

Consider the compound shown here: CC(=O)O[C@H]1C(=O)[C@@]2(C)[C@H]([C@H](OC(=O)c3ccccc3)[C@]3(O)C[C@H](OC(=O)[C@H](O)[C@@H](NC(=O)c4ccccc4)c4ccccc4)C(C)=C1C3(C)C)[C@]1(OC(C)=O)CO[C@@H]1C[C@@H]2O What is its recorded solubility?
1 µg/mL
